Value source: ChEMBL document CHEMBL5356962

biological target: Epidermal growth factor receptor (Homo sapiens, UniProt P00533, C797S/EX19DEL/T790M); test: Inhibition of EGFR Del19/T790M/C797S mutant (unknown origin) phosphorylation
pIC50: −log10 of the molar value.
value_kind: pIC50

Please review the following examples before continuing.
| smiles_notation | value_kind | assay_result |
| --- | --- | --- |
| CCC(=O)c1cnc(Nc2ccnc(-c3cnn(S(=O)(=O)C4CC4)c3)n2)cc1N[C@@H](C)CC | pIC50 | 7.89 |
| CC(C)Nc1cc(Nc2ccnc(-c3cnn(S(=O)(=O)C4CC4)c3)n2)ncc1C(=O)N1CC(C(C)(C)O)C1 | pIC50 | 7.14 |
| CC[C@H](C)Nc1cc(Nc2ccnc(-c3cnn(S(=O)(=O)C4CC4)c3)n2)ncc1C(=O)NCCCF | pIC50 | 8.35 |

(a) CCNC(=O)c1cnc(Nc2ccnc(-c3cnn(S(=O)(=O)C4CC4)c3)n2)cc1N[C@@H](C)CC
(b) CC[C@H](C)Nc1cc(Nc2ccnc(-c3cnn(S(=O)(=O)C4CC4)c3)n2)ncc1C(=O)N1CC(C(C)(C)O)C1
(c) CC[C@H](C)Nc1cc(Nc2ccnc(-c3cnn(S(=O)(=O)C4CC4)c3)n2)ncc1C(=O)NC
(d) CC[C@H](C)Nc1cc(Nc2ccnc(-c3cnn(S(=O)(=O)C4CC4)c3)n2)ncc1C(=O)N(C)C
(e) CC[C@H](C)Nc1cc(Nc2ccnc(-c3cnn(S(=O)(=O)C4CC4)c3)n2)ncc1C(=O)NCCN(C)C
Returns the items ordered by pIC50, from maximum to minimum. Returns: the labels listed in the requested order.
c, a, e, b, d

---

biological target: Epidermal growth factor receptor (Homo sapiens, UniProt P00533, C797S/L858R/T790M); test: Inhibition of EGFR L858R/T790M/C797S mutant (unknown origin) phosphorylation
Sequence (P00533 25-1210 T790M/C797S/L858R limits assumed): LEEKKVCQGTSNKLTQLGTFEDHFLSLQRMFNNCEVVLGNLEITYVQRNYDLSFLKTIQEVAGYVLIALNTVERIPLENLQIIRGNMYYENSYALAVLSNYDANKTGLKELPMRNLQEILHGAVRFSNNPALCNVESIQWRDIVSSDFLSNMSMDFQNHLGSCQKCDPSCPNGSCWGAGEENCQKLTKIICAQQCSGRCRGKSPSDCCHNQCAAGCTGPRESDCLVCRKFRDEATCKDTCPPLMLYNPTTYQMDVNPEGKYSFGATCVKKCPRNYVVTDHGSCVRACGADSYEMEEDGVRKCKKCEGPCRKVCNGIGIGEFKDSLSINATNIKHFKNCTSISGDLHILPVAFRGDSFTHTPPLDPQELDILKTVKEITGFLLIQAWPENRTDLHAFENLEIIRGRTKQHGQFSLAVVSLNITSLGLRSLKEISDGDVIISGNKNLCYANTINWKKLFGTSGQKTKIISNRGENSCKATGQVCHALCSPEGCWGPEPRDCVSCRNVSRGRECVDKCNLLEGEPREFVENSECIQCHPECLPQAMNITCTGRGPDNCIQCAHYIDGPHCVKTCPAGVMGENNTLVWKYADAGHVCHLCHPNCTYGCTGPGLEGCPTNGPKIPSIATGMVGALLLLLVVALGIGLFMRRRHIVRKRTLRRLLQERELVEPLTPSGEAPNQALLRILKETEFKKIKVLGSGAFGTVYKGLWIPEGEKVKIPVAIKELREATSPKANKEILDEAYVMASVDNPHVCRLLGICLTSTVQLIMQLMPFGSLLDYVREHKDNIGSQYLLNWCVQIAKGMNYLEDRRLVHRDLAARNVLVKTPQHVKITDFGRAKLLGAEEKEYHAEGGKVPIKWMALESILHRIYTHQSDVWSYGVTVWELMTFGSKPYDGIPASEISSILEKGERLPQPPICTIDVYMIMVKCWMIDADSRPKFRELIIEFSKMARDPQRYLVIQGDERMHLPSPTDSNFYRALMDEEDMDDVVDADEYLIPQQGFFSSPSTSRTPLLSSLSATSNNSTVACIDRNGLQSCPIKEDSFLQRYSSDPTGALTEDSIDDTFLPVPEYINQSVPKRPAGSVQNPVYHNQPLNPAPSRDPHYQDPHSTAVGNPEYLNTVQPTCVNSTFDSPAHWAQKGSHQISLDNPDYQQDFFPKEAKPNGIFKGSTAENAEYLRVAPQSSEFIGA
value_kind: IC50 (nM)

| smiles_notation | value_kind | assay_result |
| --- | --- | --- |
| CC[C@H](C)Nc1cc(Nc2ccnc(-c3cnn(S(=O)(=O)C4CC4)c3)n2)ncc1C(=O)NC | IC50 | 3.6 |

(A) CCNC(=O)c1cnc(Nc2ccnc(-c3cnn(S(=O)(=O)C4CC4)c3)n2)cc1N[C@@H](C)CC
(B) CCNS(=O)(=O)c1cnc(Nc2ccnc(-c3cnn(S(=O)(=O)C4CC4)c3)n2)cc1N[C@@H](C)CC
(C) CC[C@H](C)Nc1cc(Nc2ccnc(-c3cnn(S(=O)(=O)C4CC4)c3)n2)ncc1C(=O)NCCCF
Ranking field: IC50; order: falling. I would appreciate it if you listed the labels in the requested order.
B, A, C

---

Epidermal growth factor receptor (Homo sapiens, UniProt P00533) data, read-out IC50
Sequence (P00533 whole entry): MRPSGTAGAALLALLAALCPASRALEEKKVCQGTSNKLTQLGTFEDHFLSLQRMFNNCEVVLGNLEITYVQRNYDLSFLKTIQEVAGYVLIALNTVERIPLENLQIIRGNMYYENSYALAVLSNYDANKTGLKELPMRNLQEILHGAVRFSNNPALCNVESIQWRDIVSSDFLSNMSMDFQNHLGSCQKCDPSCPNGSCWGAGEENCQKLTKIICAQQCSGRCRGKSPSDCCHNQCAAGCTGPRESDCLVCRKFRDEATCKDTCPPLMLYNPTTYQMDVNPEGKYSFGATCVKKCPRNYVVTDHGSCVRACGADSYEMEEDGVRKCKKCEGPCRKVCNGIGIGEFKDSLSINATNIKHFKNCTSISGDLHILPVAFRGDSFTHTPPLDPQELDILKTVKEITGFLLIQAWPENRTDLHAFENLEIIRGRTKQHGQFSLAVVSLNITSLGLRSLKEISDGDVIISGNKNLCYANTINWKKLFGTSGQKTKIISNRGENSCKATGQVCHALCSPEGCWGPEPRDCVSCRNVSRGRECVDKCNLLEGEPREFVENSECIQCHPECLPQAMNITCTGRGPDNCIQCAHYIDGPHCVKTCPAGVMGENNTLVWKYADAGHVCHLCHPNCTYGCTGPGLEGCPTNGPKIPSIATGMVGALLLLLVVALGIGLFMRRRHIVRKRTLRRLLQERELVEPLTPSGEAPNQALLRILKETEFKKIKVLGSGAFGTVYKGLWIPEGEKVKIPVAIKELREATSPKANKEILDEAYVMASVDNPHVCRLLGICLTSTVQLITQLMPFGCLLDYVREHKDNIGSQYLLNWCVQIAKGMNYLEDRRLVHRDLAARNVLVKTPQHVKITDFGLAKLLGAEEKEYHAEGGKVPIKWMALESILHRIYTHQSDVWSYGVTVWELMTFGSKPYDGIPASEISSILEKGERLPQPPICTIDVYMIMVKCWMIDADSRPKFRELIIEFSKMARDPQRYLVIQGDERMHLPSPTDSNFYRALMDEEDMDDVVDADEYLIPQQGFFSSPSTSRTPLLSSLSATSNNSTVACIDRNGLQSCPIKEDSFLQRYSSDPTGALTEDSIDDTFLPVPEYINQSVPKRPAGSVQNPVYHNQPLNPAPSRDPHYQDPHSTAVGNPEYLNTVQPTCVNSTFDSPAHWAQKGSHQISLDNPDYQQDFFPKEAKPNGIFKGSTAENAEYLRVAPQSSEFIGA
value_kind: IC50 (nM)

| smiles_notation | IC50, nM |
| --- | --- |
| CC[C@H](C)Nc1cc(Nc2ccnc(-c3cnn(S(=O)(=O)C4CC4)c3)n2)ncc1C(=O)N1CC(C(C)(C)O)C1 | 235 |

(a) CC[C@H](C)Nc1cc(Nc2ccnc(-c3cnn(S(=O)(=O)C4CC4)c3)n2)ncc1C(=O)NCCN(C)C
(b) CC[C@H](C)Nc1cc(Nc2ccnc(-c3cnn(S(=O)(=O)C4CC4)c3)n2)ncc1C(=O)NCCCF
Just tell me: smaller IC50 value, a or b ? Your choice should be expressed through its label.
b

---

biological target: Epidermal growth factor receptor (Homo sapiens, UniProt P00533, C797S/L858R/T790M); assay: Inhibition of EGFR L858R/T790M/C797S mutant (unknown origin) phosphorylation
pIC50: −log10 of the molar value.
value_kind: pIC50

Example entries begin here.
| smiles_notation | pIC50 |
| --- | --- |
| CC[C@H](C)Nc1cc(Nc2ccnc(-c3cnn(S(=O)(=O)C4CC4)c3)n2)ncc1C(=O)N1CC(C(C)(C)O)C1 | 7.66 |
| CCC(=O)c1cnc(Nc2ccnc(-c3cnn(S(=O)(=O)C4CC4)c3)n2)cc1N[C@@H](C)CC | 7.96 |

(I) CC(C)Nc1cc(Nc2ccnc(-c3cnn(S(=O)(=O)C4CC4)c3)n2)ncc1C(=O)N1CC(C(C)(C)O)C1
(II) CC[C@H](C)Nc1cc(Nc2ccnc(-c3cnn(S(=O)(=O)C4CC4)c3)n2)ncc1C(=O)N(C)C
(III) CC[C@H](C)Nc1cc(Nc2ccnc(-c3cnn(S(=O)(=O)C4CC4)c3)n2)ncc1C(=O)NCCN(C)C
Hey, quick one: sort these by pIC50, largest value first please. Thanks in advance for listing the labels in the requested order.
III, I, II
